molecular target: Cathepsin B (Homo sapiens, UniProt P07858); assay: Inhibition of human cathepsin B
Metric: pKi
pKi (log units): -log10 of the concentration in mol/L.

I am curious: what pKi value has been reported for CC(C)C[C@H](NC(=O)c1ccc(-c2ccccc2)cc1)C(=O)NCC#N ?
5.75

----------
molecular target: Cathepsin B (Homo sapiens); experiment: Inhibition of human liver cathepsin B using Cbz-Arg-Arg-pNA as substrate at pH 6 incubated for 30 mins measured for 20 mins by photometrical analysis
Metric: Ki

Worked examples follow.
[[record]]
query_smiles = "CC(C)(C)OC(=O)N[C@@H](Cc1cccs1)C(=O)NCC#N"
assay_value = "> 0.33 µM"

[[record]]
query_smiles = "N#CCNC(=O)C1(NC(=O)OCc2ccccc2)CCCCC1"
assay_value = "> 0.33 µM"

[[record]]
query_smiles = "N#CCNC(=O)CNC(=O)OCc1ccccc1"
assay_value = "> 0.33 µM"

[[record]]
query_smiles = "C[C@@H](C#N)NC(=O)[C@H](Cc1ccccc1)NC(=O)OCc1ccccc1"
assay_value = "> 0.33 µM"

[[record]]
query_smiles = "CC(C)C[C@H](NC(=O)OCc1ccccc1)C(=O)NCC#N"
assay_value = "32 µM"


Could you now look at the following compound, please?
Would you kindly share the measured Ki for CC(C)(C)OC(=O)N[C@@H](Cc1ccc(-c2ccccc2)cc1)C(=O)NCC#N ?
> 0.33 µM

----------
target: Cathepsin K (Homo sapiens, UniProt P43235); test: Inhibition of human recombinant cathepsin K using Cbz-Leu-Arg-AMC as substrate incubated for 30 mins measured for 20 mins by spectrofluorometrical analysis
Sequence (P43235 whole entry): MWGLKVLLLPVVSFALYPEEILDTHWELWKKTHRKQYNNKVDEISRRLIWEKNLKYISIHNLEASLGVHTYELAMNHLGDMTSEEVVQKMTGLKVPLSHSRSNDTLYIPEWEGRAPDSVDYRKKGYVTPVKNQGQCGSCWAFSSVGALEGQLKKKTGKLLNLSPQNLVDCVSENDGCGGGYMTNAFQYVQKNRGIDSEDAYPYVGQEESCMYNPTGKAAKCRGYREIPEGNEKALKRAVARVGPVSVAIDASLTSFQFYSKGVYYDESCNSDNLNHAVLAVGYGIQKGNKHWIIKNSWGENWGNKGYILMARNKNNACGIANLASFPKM
The entries below are paired with their reported pKi.
pKi is a log-scale quantity: -log10 of the concentration expressed in molar.

[[record]]
query_smiles = "N#C[C@H](Cc1cn(CCC(=O)O)nn1)NC(=O)[C@H](Cc1cccc(Br)c1)NC(=O)c1ccc(-c2ccccc2)cc1"
metric = "pKi"
assay_value = 6.65

[[record]]
query_smiles = "COC(=O)Cn1cc(COC[C@@H](C#N)NC(=O)[C@H](Cc2cccc(Br)c2)NC(=O)c2ccc(-c3ccccc3)cc2)nn1"
metric = "pKi"
assay_value = 7.17


Fill in: pKi of N#C[C@H](COCc1cn(CC(=O)O)nn1)NC(=O)[C@H](Cc1ccccc1)NC(=O)OCc1ccccc1 is ___
6.51

----------
Catalogue of Ki readings, one per entry.
target: Cathepsin B (Homo sapiens); experiment: Inhibition of human liver cathepsin B using Cbz-Arg-Arg-pNA as substrate at pH 4.5 incubated for 30 mins measured for 20 mins by photometrical analysis
Field format: number, assumed nM, no unit text.

Would you please look over these solved cases?
[[record]]
query_smiles = "N#CCNC(=O)[C@H](Cc1cccc(Br)c1)NC(=O)c1ccc(-c2ccccc2)cc1"
target_of_assay = "Cathepsin B (Homo sapiens)"
unit_info = "nM"
assay_value = 205

[[record]]
query_smiles = "N#C[C@H](Cc1cn(CC(=O)O)nn1)NC(=O)[C@H](Cc1cccc(Br)c1)NC(=O)c1ccc(-c2ccccc2)cc1"
target_of_assay = "Cathepsin B (Homo sapiens)"
unit_info = "nM"
assay_value = 707

[[record]]
query_smiles = "COC(=O)Cn1cc(COC[C@@H](C#N)NC(=O)[C@H](Cc2cccc(Br)c2)NC(=O)c2ccc(-c3ccccc3)cc2)nn1"
target_of_assay = "Cathepsin B (Homo sapiens)"
unit_info = "nM"
assay_value = 136


Now for another entry.
Using the record for N#C[C@H](COCc1cn(CC(=O)O)nn1)NC(=O)[C@H](Cc1cccc(Br)c1)NC(=O)c1ccc(-c2ccccc2)cc1 , report its Ki.
27.3
